species: Rattus norvegicus; experiment: Delta HR ratio measured as the ratio of delta HR(20 min)/delta HR (5 min); assay type: functional
# note: boundary value 0.7 maps to False; Ratio below it maps to True

SAMPLE_SMILES: COc1cc2c(cc1OC)CC(=O)N(CCCN(C)CCc1csc3c1CCCC3)CC2
CATEGORY_LABEL: False

SAMPLE_SMILES: COc1cc2c(cc1OC)CC(=O)N(CCCN(C)CCCCCc1cccs1)CC2
CATEGORY_LABEL: True

SAMPLE_SMILES: COc1cc2c(cc1OC)CC(=O)N(CCCN(C)CCc1cc(C)sc1C)CC2
CATEGORY_LABEL: True

SAMPLE_SMILES: COc1cc2c(cc1OC)CC(=O)N(CCCN(C)CCc1cccs1)CC2
CATEGORY_LABEL: True

SAMPLE_SMILES: COc1cc2c(cc1OC)CC(=O)N(CCCN(C)CCc1ccccn1)CC2
CATEGORY_LABEL: False

SAMPLE_SMILES: COc1cc2c(cc1OC)CC(=O)N(CCCN(C)CCc1cn(C)c3ccccc13)CC2
CATEGORY_LABEL: False

SAMPLE_SMILES: COc1cc2c(cc1OC)CC(=O)N(CCCN(C)CCc1csc3cc(OS(C)(=O)=O)ccc13)CC2
CATEGORY_LABEL: False

SAMPLE_SMILES: COc1cc2c(cc1OC)CC(=O)N(CCCN(C)CCc1cncc3cc(OC)c(OC)cc13)CC2
CATEGORY_LABEL: False
